molecular target: human OT7T175 (metastin receptor) (human, UniProt Q969F8 1-398); experiment: cell-based or functional assay
Sequence (Q969F8 whole entry L364H): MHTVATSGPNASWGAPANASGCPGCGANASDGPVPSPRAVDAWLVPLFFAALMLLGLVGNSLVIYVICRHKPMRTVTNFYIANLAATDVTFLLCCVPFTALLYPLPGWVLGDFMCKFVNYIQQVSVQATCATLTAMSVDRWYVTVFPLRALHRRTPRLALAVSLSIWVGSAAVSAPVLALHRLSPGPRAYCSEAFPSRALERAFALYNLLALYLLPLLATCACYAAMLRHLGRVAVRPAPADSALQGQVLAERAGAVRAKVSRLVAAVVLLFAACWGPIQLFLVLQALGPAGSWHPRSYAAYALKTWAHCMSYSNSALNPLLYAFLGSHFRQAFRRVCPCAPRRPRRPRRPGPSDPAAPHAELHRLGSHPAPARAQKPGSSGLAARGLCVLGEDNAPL
Square brackets hold non-standard residues; d marks the D form. Ends that are not written are not given here. Arg(Me) = CNC(=N)NCCC[C@H](N)C(=O)O
Please provide measured intracellular Ca ion level-increasing activity (FLIPR) for the entries that follow.

{"binder": "[dY]NTNSFGL[Arg(Me)]F-NH2 (N-terminus assumed; SMILES CNC(=N)NCCC[C@H](NC(=O)[C@H](CC(C)C)NC(=O)CNC(=O)[C@H](Cc1ccccc1)NC(=O)[C@H](CO)NC(=O)[C@H](CC(N)=O)NC(=O)[C@@H](NC(=O)[C@H](CC(N)=O)NC(=O)[C@H](N)Cc1ccc(O)cc1)[C@@H](C)O)C(=O)N[C@@H](Cc1ccccc1)C(N)=O) [Compound No. 205: [D-Tyr1,Thr3,Arg(Me)9]MS10]", "obs value": "10 specific activity to metastin (1-54)"}

Moving on to the next binder.
Qu. Which value of intracellular Ca ion level-increasing activity (FLIPR) has been reported for [dY]NWASFGL[Arg(Me)]F-NH2 (N-terminus assumed; SMILES CNC(=N)NCCC[C@H](NC(=O)[C@H](CC(C)C)NC(=O)CNC(=O)[C@H](Cc1ccccc1)NC(=O)[C@H](CO)NC(=O)[C@H](C)NC(=O)[C@H](Cc1c[nH]c2ccccc12)NC(=O)[C@H](CC(N)=O)NC(=O)[C@H](N)Cc1ccc(O)cc1)C(=O)N[C@@H](Cc1ccccc1)C(N)=O) [Compound No. 210: [D-Tyr1,Ala4,Arg(Me)9]MS10] in the records?
Ans. 1 specific activity to metastin (1-54)
